# ASSAY TARGET: MC4 receptor (Homo sapiens)
# Sequence (P32245 whole entry): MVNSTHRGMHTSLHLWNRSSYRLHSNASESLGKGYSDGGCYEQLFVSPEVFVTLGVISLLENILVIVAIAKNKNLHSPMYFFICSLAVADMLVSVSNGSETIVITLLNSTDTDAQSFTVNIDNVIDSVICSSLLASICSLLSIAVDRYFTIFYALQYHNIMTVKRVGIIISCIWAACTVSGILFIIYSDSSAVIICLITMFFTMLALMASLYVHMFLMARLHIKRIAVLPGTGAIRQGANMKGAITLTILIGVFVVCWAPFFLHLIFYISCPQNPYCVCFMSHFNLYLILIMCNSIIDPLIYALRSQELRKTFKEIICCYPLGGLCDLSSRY
# MEASUREMENT PROTOCOL: MC4 functional agonist potency (EC50), assay protocol E of US2005/0176772 / WO 2005/077935
# CONDITIONS: functional potency at the MC4 receptor
OUTCOME MEASURE: log10 EC50 (log10 of the value in nM)
Values are log10 of EC50 in nM.

| MOLECULE | OUTCOME MEASURE | NUMERIC READOUT |
| --- | --- | --- |
| CC1CN(C(=O)C2CN(c3ccc(C#N)nn3)CC2c2ccc(Cl)cn2)CC(C)C1(O)c1ccccn1 (centres unmarked) | log10 EC50 | 0.76 |

Attention now shifts to the item below.
Which log10 EC50 value belongs to "C[C@@H]1CN(C(=O)[C@@H]2CN(c3ccc(=O)n(C)n3)C[C@H]2c2ccc(F)cn2)C[C@H](C)[C@@]1(O)c1ccc(Cl)cc1" ? 1.60
